- TARGET: UniProtKB P0C1P9
- RUN_DESCRIPTION: Inhibition of DNA polymerase3C from Staphylococcus aureus at 100 uM
QUANTITY_MEASURED: inhibition (%)
Number in %, nothing else.

Below are worked cases with known answers.
> print(dat)
                                 mol.smiles  measured.number
1   CCc1cc(Nc2nc(O)c(Cc3ccccc3)c(O)n2)ccc1C               94
2   CCc1cc(Nc2nc(N)c(Cc3ccccc3)c(O)n2)ccc1C                3
3  COc1cc(C#N)ccc1OCCCc1c(O)nc(Nc2ccc3c(c2)CCC3)nc1O               95

Task: Please tell me the measured inhibition for `Oc1nc(Nc2ccc3c(c2)CCC3)nc(O)c1CCCCc1ccccc1` ; system: UniProtKB P0C1P9.
Result: 35

Task: Please tell me the measured inhibition for `Oc1nc(Nc2ccc3c(c2)CCC3)nc(O)c1CCCN1CCCCC1` ; system: UniProtKB P0C1P9.
Result: 69

Task: Please tell me the measured inhibition for `CCc1cc(Nc2nc(N)cc(O)n2)ccc1C` ; system: UniProtKB P0C1P9.
Result: 36

* * *

- TARGET: DNA polymerase III PolC-type (Staphylococcus aureus, UniProt P0C1P9)
- Sequence (P0C1P9 whole entry): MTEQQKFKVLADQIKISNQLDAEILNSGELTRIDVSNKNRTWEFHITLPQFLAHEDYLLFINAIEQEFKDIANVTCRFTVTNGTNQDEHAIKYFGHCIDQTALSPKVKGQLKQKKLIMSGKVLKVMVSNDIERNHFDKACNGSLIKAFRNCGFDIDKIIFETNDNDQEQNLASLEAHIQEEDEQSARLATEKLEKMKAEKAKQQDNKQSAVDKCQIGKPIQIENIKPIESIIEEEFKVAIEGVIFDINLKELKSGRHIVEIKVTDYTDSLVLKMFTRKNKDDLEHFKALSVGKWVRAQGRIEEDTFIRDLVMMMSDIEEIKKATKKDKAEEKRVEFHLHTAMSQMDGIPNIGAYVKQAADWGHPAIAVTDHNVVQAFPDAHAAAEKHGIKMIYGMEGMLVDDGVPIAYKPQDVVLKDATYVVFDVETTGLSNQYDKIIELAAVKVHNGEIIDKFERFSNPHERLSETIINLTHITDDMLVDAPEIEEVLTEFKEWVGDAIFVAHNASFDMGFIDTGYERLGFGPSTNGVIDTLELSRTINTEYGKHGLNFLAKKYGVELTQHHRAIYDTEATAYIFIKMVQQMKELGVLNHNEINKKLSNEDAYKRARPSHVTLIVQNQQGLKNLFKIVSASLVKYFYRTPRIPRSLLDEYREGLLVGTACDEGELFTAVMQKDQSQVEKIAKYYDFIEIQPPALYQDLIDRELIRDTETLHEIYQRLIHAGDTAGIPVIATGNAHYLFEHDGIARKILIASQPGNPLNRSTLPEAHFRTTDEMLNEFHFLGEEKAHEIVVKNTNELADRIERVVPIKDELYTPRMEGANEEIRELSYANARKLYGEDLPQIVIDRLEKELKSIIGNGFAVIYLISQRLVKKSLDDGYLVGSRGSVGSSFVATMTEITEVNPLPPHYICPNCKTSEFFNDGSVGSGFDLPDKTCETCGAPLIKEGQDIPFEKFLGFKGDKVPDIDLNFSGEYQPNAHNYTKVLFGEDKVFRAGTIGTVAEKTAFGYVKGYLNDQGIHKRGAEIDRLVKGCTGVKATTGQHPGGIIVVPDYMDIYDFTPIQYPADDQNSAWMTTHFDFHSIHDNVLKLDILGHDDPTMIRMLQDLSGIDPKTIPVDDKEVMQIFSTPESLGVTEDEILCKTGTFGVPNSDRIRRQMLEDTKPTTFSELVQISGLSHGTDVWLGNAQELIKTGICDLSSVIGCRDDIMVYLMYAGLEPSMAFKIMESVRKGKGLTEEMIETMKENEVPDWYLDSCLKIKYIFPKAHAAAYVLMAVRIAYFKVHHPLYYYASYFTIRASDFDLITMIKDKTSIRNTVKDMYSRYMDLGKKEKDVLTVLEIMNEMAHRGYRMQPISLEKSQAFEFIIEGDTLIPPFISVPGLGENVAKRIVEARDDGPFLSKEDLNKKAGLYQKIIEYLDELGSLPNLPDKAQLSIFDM
pIC50: −log10 of the molar value.
Label satisfied when pIC50 >= 5; otherwise not satisfied.

Illustrative cases are given below, each with its answer.
> print(dat)
                                 mol.smiles                                    target    class.label
1  COc1cc(C#N)ccc1OCCCc1c(O)nc(Nc2ccc3c(c2)CCC3)nc1O  DNA polymerase III PolC-type (Staphylococcus aureus, UniProt P0C1P9)      satisfied
2       C=CCCc1c(O)nc(Nc2ccc3c(c2)CCC3)nc1O  DNA polymerase III PolC-type (Staphylococcus aureus, UniProt P0C1P9)  not satisfied
3  O=c1[nH]c(Nc2ccc3c(c2)CCC3)nc(O)c1CCCOc1ccc([N+](=O)[O-])cc1  DNA polymerase III PolC-type (Staphylococcus aureus, UniProt P0C1P9)      satisfied

# input for lookup
Task: Item `C=CCc1c(N)nc(Nc2ccc(C)c(CC)c2)[nH]c1=O` with pIC50 of 5 or above?
Result: not satisfied
